System: P-gp
methodNotes: in vitro
Type: in vitro ADME
reportedConditions: pig, LLC-PK1
experimentalEndpoint: Papp A→B
In your response, the unit should come after the numeric value.

[[record]]
compound = "CCC1CN2CCNCc3ccc(C(=O)NC)c1c32 (single isomer, unassigned; (+)) [(+)-19i]"
valueobserved = "7.73 ×10⁻⁶ cm/s"


Query: Consider the compound C[C@H]1CN2CCNCc3ccc(C(=O)NCC(F)F)c1c32 [(+)-19m] and give its measured Papp A→B.
Response: 8.9 ×10⁻⁶ cm/s

Query: // next record CCC1CN2CCNCc3ccc(C(=O)NCC(F)F)c1c32 (single isomer, unassigned; (+)) [(+)-19k]
Response: 12.8 ×10⁻⁶ cm/s

Query: // next record CNC(=O)c1ccc2c3c1C(CC(F)(F)F)CN3CCNC2 (single isomer, unassigned; (+)) [(+)-19a]
Response: 14.8 ×10⁻⁶ cm/s
